Source: patent US9926281B2

Kindly supply the reported pIC50 values for the records listed here.
target: human ADAMTS-5 (Homo sapiens (Human), UniProt Q9UNA0); assay: biochemical
Sequence (Q9UNA0 262-930): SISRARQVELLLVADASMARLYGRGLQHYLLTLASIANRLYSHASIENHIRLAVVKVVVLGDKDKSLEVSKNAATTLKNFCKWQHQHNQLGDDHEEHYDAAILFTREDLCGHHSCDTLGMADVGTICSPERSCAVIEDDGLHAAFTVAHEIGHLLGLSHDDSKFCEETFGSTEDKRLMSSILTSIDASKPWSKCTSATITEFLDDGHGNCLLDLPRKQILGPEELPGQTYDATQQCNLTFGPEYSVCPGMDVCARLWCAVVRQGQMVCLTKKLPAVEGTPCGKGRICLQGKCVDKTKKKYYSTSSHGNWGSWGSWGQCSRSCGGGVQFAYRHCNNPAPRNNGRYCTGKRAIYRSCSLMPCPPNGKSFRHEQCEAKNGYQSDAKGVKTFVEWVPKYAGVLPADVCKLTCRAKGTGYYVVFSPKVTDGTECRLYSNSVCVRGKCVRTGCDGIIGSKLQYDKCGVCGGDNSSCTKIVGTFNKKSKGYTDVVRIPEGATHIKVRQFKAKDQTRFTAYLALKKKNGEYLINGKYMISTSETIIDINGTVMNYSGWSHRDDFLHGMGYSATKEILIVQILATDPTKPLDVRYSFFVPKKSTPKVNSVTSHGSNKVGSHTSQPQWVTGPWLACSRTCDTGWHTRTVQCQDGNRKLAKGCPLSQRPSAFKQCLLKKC
# reply with the number alone; pIC50 is -log10 of concentration in mol/L

Record C[C@H]1CN(C(=O)CCC2(c3ccc(C(F)(F)F)nc3)NC(=O)NC2=O)CCN1c1cc(F)cc(F)c1 (stereo partly shown) [compound 335] , field pIC50: 7.11

Record C[C@H]1CN(C(=O)CCC2(C3CC3)NC(=O)NC2=O)CCN1c1cccc2c1cnn2C (stereo partly shown) [compound 333] , field pIC50: 5.51

Record C[C@H]1CN(C(=O)CCC2(C)NC(=O)NC2=O)CCN1c1ccc(Cl)c(F)c1 (stereo partly shown) [compound 164] , field pIC50: 6.63

Record COCC1(CC(C)C(=O)N2CCN(c3cncc(F)c3)[C@@H](C)C2)NC(=O)NC1=O (stereo partly shown) [compound 364] , field pIC50: 7.04

----------
target: human ADAMTS-5 (Homo sapiens (Human), UniProt Q9UNA0); details: read-out: hADAMTS-5 potency IC50
value_type: IC50 (nM)
Just the number in nM, nothing appended.

Here C[C@H]1CN(C(=O)CCC2(C3CC3)NC(=O)NC2=O)CCN1c1cccc(-c2cnccn2)c1 (stereo partly shown) [Cpd 372] was tested on human ADAMTS-5 (Homo sapiens (Human), UniProt Q9UNA0), and its IC50 came to 2390

Here Cc1ccc(C2(CCC(=O)N3CCN(c4cc(F)cc(F)c4)[C@@H](C)C3)NC(=O)NC2=O)cn1 (stereo partly shown) [compound 386] was tested on human ADAMTS-5 (Homo sapiens (Human), UniProt Q9UNA0), and its IC50 came to 48

Here C[C@@H](C[C@@]1(C2CC2)NC(=O)NC1=O)C(=O)N1CCN(c2ccc(F)c(-c3cn[nH]c3)c2)[C@@H](C)C1 [compound 378] was tested on human ADAMTS-5 (Homo sapiens (Human), UniProt Q9UNA0), and its IC50 came to 22

Here NCC1(CCC(=O)N2CCN(c3cccc(Cl)c3)CC2)NC(=O)NC1=O (stereo not shown) [compound 171] was tested on human ADAMTS-5 (Homo sapiens (Human), UniProt Q9UNA0), and its IC50 came to 305

Here C[C@H]1CN(C(=O)CCC2(C3CC3)NC(=O)NC2=O)CCN1c1cccnc1 (stereo partly shown) [compound 259] was tested on human ADAMTS-5 (Homo sapiens (Human), UniProt Q9UNA0), and its IC50 came to 224

Here CC(CC1(CN2CCC(F)(F)C2)NC(=O)NC1=O)C(=O)N1CCN(c2cc(Cl)cc(Cl)c2)CC1 (stereo not shown) [compound 252] was tested on human ADAMTS-5 (Homo sapiens (Human), UniProt Q9UNA0), and its IC50 came to 67

Here C[C@H]1CN(C(=O)CCC2(C3CC3)NC(=O)NC2=O)CCN1c1cccc(-c2cncnc2)c1 (stereo partly shown) [compound 377] was tested on human ADAMTS-5 (Homo sapiens (Human), UniProt Q9UNA0), and its IC50 came to 700

Here COC(CC1(C)NC(=O)NC1=O)C(=O)N1CCN(c2cc(Cl)cc(Cl)c2)CC1 (stereo not shown) [compound 439] was tested on human ADAMTS-5 (Homo sapiens (Human), UniProt Q9UNA0), and its IC50 came to 43

Here C[C@H]1CN(C(=O)CCC2(c3cnccn3)NC(=O)NC2=O)CCN1c1ccc(Cl)c(Cl)c1 (stereo partly shown) [compound 460] was tested on human ADAMTS-5 (Homo sapiens (Human), UniProt Q9UNA0), and its IC50 came to 30

Here CC(=O)NCC1(CCC(=O)N2CCN(c3cc(Cl)cc(Cl)c3)CC2)NC(=O)NC1=O (stereo not shown) [Cpd 223] was tested on human ADAMTS-5 (Homo sapiens (Human), UniProt Q9UNA0), and its IC50 came to 70

Here C[C@H]1CN(C(=O)CCC2(c3cnccn3)NC(=O)NC2=O)CCN1c1cc(Cl)cc(Cl)c1 (stereo partly shown) [compound 461] was tested on human ADAMTS-5 (Homo sapiens (Human), UniProt Q9UNA0), and its IC50 came to 39

Here C[C@H]1CN(C(=O)CCC2(c3ccccn3)NC(=O)NC2=O)CCN1c1cc(Cl)cc(Cl)c1 (stereo partly shown) [compound 459] was tested on human ADAMTS-5 (Homo sapiens (Human), UniProt Q9UNA0), and its IC50 came to 46
